Collected AC40 values appear next to each entry.
System: mESC Bmi1-luciferase reporter, firefly/renilla ratio, 24 h
assay_text: compounds raising Bmi1 reporter signal – mouse embryonic stem cells, luciferase, cherry-pick, esBAF inhibitor project, dose response (AID 651717);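 note: luciferase knocked into Bmi1 locus with EF-1a renilla as cell number control; rising ratio signals esBAF inhibition which derepresses Bmi1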
quantity_kind: AC40

compound | measurement_target | quantity_kind | assay_result
Nc1c(Cl)cc(N=Nc2ccccc2)cc1Cl | mESC Bmi1-luciferase reporter, firefly/renilla ratio, 24 h | AC40 | 3.27 µM
O=P(O)(O)c1ccccc1OCCOCCOCCOCCOc1ccccc1P(=O)(O)O | mESC Bmi1-luciferase reporter, firefly/renilla ratio, 24 h | AC40 | 8.04 µM
COc1ccc(/C=N/NC(=O)c2cccs2)c2ccccc12 | mESC Bmi1-luciferase reporter, firefly/renilla ratio, 24 h | AC40 | 9.35 µM
Cc1cc2oc(=O)cc(CN3CCC(C)CC3)c2cc1Cl | mESC Bmi1-luciferase reporter, firefly/renilla ratio, 24 h | AC40 | 9.54 µM
CC(C)C1C(=O)N(Cc2cn(CCC3OCCCO3)nn2)CCS(=O)(=O)N1Cc1ccc(-c2ccc(Cl)nc2)cc1 (stereo unspecified) | mESC Bmi1-luciferase reporter, firefly/renilla ratio, 24 h | AC40 | 17.8 µM
CCCC1c2ccc(C)n2CCN1C(=O)Nc1ccccc1Cl (stereo unspecified) | mESC Bmi1-luciferase reporter, firefly/renilla ratio, 24 h | AC40 | 6.07 µM
Cc1cc(=O)oc2cc(NC(=O)c3cccc(F)c3)ccc12 | mESC Bmi1-luciferase reporter, firefly/renilla ratio, 24 h | AC40 | 1.82 µM
Cc1nc(-c2ccc(Cl)cc2)sc1C1(C)CC(c2cccnc2)=NO1 (stereo unspecified) | mESC Bmi1-luciferase reporter, firefly/renilla ratio, 24 h | AC40 | 5.57 µM
COc1cc(C(=O)Oc2ccccc2/C=N/NC(=O)c2ccc(Cl)cc2Cl)cc(OC)c1OC | mESC Bmi1-luciferase reporter, firefly/renilla ratio, 24 h | AC40 | 1.1 µM
Cc1ccn2cc(C(=O)Nc3nnc(C)s3)nc2c1 | mESC Bmi1-luciferase reporter, firefly/renilla ratio, 24 h | AC40 | 1.17 µM
COc1ccc(C2=Nc3ccccc3NC(=O)C2N(C(=O)c2cc3ccccc3[nH]2)c2ccccc2)cc1 (stereo unspecified) | mESC Bmi1-luciferase reporter, firefly/renilla ratio, 24 h | AC40 | 1.44 µM

---

System: mESC Bmi1-luciferase reporter, firefly/renilla ratio, 24 h
assay_text: compounds raising Bmi1 reporter signal – mouse embryonic stem cells, luciferase, cherry-pick, esBAF inhibitor project, dose response (AID 651717);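 note: luciferase knocked into Bmi1 locus with EF-1a renilla as cell number control; rising ratio signals esBAF inhibition which derepresses Bmi1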

molecule | AC40
COc1ccc(NC(=O)O/N=C/c2ccccc2)cc1 | 5.24 µM
Fc1cccc(Cl)c1/C=N/Nc1ccccn1 | 8.55 µM
CCn1c(C)nc2cc(C(=O)NN=Cc3ccccc3OC(F)F)ccc21 | 1.96 µM
O=C(Cc1ccccc1)Nc1nc(-c2cccs2)cs1 | 8.2 µM
COc1ccc2c(c1)nc(-c1cccc(Br)c1)c(=O)n2C(c1ccccn1)c1nc2ccccc2[nH]1 (configuration not stated) | 2.94 µM
CC(C)(C)C(=O)N1CCN(c2nc3ccccc3s2)CC1 | 0.702 µM
CC1CCCC(C)N1C(=O)c1cc(-c2ccc(Cl)c(Cl)c2)on1 (configuration not stated) | 6.88 µM
Cn1ccc2c(-c3ccc(C(=O)O)cc3)cc3c(c21)C1CCC3C1 (configuration not stated) | 4.09 µM
COc1ccc(Cc2nc3ccc(C(=O)NCCCSC)cc3o2)cc1OC | 4.92 µM
CCn1ccnc1CN(C)C(=O)c1cc(COc2ccccc2SC)on1 | 8.01 µM
COc1ccc(-c2cc(C(=O)Nc3cccnc3)no2)cc1OC | 4.87 µM
CCn1cnc2cc(NCc3ccc(OC)cc3)ccc21 | 0.992 µM
COC(=O)c1ccc(NC(=O)c2cc3sccc3n2C)cc1 | 6.75 µM
CC(C)(C)c1ccc(C(=O)c2cn[nH]c2-c2ccccc2O)cc1 | 7.24 µM
Cc1ccc(CNc2cccnc2)cc1 | 25.7 µM
Cc1ccc(CNC(=O)c2ccc(Cn3cc(-c4ccc(C)cc4)nc3-c3ccncc3)cc2)cc1 | 1.77 µM
Cc1ccc(C(=O)Nc2ccc(Br)c(C(F)(F)F)c2)cc1 | 1.73 µM
CC(=O)Oc1ccc(-c2csc(Nc3ccc(Cl)cn3)n2)cc1 | 2.19 µM
CC(=O)N1CC2(CC(c3ccccc3F)=NO2)CN1c1ccc(Cl)cc1 (configuration not stated) | 19.9 µM
O=C(Nc1ccccn1)c1c(O)c2cccc3c2n(c1=O)CCC3 | 18.4 µM
COc1ccc2oc3cc(Cl)ccc3c(=O)c2c1 | 2.85 µM
COC(=O)/C(=C1\Oc2ccc(C(C)(C)C)cc2S1)C(F)(F)F | 1.45 µM
CCCC1(C)Nc2ccccc2-c2nc3ccccc3n21 (configuration not stated) | 11.3 µM
c1ccc(CCc2nc(-c3cccnc3)no2)cc1 | 1.64 µM
CS(=O)(=O)c1cccc(-c2csc(N3CCC(C(N)=O)CC3)n2)c1 | < 0.26 µM
COC(=O)Cc1ccc(OCc2ccc(Cl)nc2)cc1 | 6.74 µM
CC(=O)Nc1ccc(-c2nnc(SCC(=O)Nc3ccc4c(c3)oc3ccccc34)n2C)cc1 | 6.97 µM

---

Tested on: mESC Bmi1-luciferase reporter, firefly/renilla ratio, 24 h
assay_text: compounds raising Bmi1 reporter signal – mouse embryonic stem cells, luciferase, cherry-pick, esBAF inhibitor project, dose response (AID 651717);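 note: luciferase knocked into Bmi1 locus with EF-1a renilla as cell number control; rising ratio signals esBAF inhibition which derepresses Bmi1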

molecule | measurement_target | AC40
Nc1nc(SCc2ccccc2)sc1C(=O)N1CCCCC1 | mESC Bmi1-luciferase reporter, firefly/renilla ratio, 24 h | 2.53 µM
Cc1ccc(OCn2c(=O)sc3ccccc32)cc1 | mESC Bmi1-luciferase reporter, firefly/renilla ratio, 24 h | 6.12 µM
Cn1c2ccccc2c(=O)c2cc(C#Cc3ccsc3)ccc21 | mESC Bmi1-luciferase reporter, firefly/renilla ratio, 24 h | 1.08 µM
ClCCn1cnc2c(SCc3ccccc3)ncnc21 | mESC Bmi1-luciferase reporter, firefly/renilla ratio, 24 h | 2.74 µM
O=C(OCc1ccccc1)N1CCC2CC1c1cc(/C=C/CCCSc3ncccn3)ccc12 (stereo not given) | mESC Bmi1-luciferase reporter, firefly/renilla ratio, 24 h | 12.2 µM
c1ccc(Cn2c(-c3cncs3)nc3ccccc32)cc1 | mESC Bmi1-luciferase reporter, firefly/renilla ratio, 24 h | 11.8 µM
Cc1ccc(C)c(N2CCN(C(=O)CCc3nc(-c4ccccc4C(F)(F)F)no3)CC2)c1 | mESC Bmi1-luciferase reporter, firefly/renilla ratio, 24 h | 4.63 µM
NCCNC(=O)c1c(NC(=O)c2ccccc2)sc2c1CCCC2 | mESC Bmi1-luciferase reporter, firefly/renilla ratio, 24 h | 34.4 µM
COc1ccccc1NC(=O)Nc1nc(CC(=O)Nc2ccc(N(C)C)cc2)cs1 | mESC Bmi1-luciferase reporter, firefly/renilla ratio, 24 h | 8.78 µM
O=C(Nc1ccc(F)cc1)NC1CCCCCCC1 | mESC Bmi1-luciferase reporter, firefly/renilla ratio, 24 h | 12 µM
CC1(C)Cc2c(c(N3CCCC3)nc3sc(C(=O)Nc4ccccc4)c(N)c23)CO1 | mESC Bmi1-luciferase reporter, firefly/renilla ratio, 24 h | 6.24 µM
Cc1csc(NC(=O)Cc2c(F)cccc2Cl)n1 | mESC Bmi1-luciferase reporter, firefly/renilla ratio, 24 h | 8.57 µM
Clc1cccc2sc(N3CCCCC3)nc12 | mESC Bmi1-luciferase reporter, firefly/renilla ratio, 24 h | 5.75 µM
c1ccc(Oc2cc(-c3ccccc3)ncn2)cc1 | mESC Bmi1-luciferase reporter, firefly/renilla ratio, 24 h | 2.16 µM
C=CCN(C(=O)C1CC(=O)N(C2CCCC2)C1)c1nc(-c2ccc(S(C)(=O)=O)cc2)cs1 (stereo not given) | mESC Bmi1-luciferase reporter, firefly/renilla ratio, 24 h | 34.4 µM
COC(=O)c1ccc(CN2C(=O)NC3(CCCCC3)C2=O)cc1 | mESC Bmi1-luciferase reporter, firefly/renilla ratio, 24 h | 7.87 µM
CC(C)c1ccc(C(O)c2cnc(C(C)C)n2C)cc1 (stereo not given) | mESC Bmi1-luciferase reporter, firefly/renilla ratio, 24 h | 4.11 µM
CCN1C(=O)C(=CC=CN(C)c2ccccc2)SC1=S | mESC Bmi1-luciferase reporter, firefly/renilla ratio, 24 h | 0.466 µM
CCN(CC)S(=O)(=O)c1cccc(-c2cn3cc(C)ccc3n2)c1 | mESC Bmi1-luciferase reporter, firefly/renilla ratio, 24 h | 4 µM
CC(=O)Nc1ccc(CNc2nc3cc(-c4ccc(F)cc4)sc3c(=O)n2C)cc1 | mESC Bmi1-luciferase reporter, firefly/renilla ratio, 24 h | 1.69 µM

---

System: mESC Bmi1-luciferase reporter, firefly/renilla ratio, 24 h
assay_text: compounds raising Bmi1 reporter signal – mouse embryonic stem cells, luciferase, cherry-pick, esBAF inhibitor project, dose response (AID 651717);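 note: luciferase knocked into Bmi1 locus with EF-1a renilla as cell number control; rising ratio signals esBAF inhibition which derepresses Bmi1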
quantity_kind: AC40

compound | assay_result
CCNC(=O)O/N=C(\C)c1sc(-c2ccccc2)nc1C | 3.29 µM
COC(=O)c1c(-c2ccc(SC)cc2)sc2ccccc12 | 14.3 µM
COc1ccc(-c2csc(C(C)(O)c3ccccc3)n2)cc1 (centres undefined) | 14.9 µM
O=C(CCCc1ccccn1)c1ccc(-c2ccccc2)cc1 | 4.03 µM
Cn1c(/C(C#N)=C(\O)c2ccc(Cl)s2)nc2ccccc21 | 3.09 µM
Cc1cccc(NC(=O)C2C3CCCCC32)c1 (centres undefined) | 4.55 µM
CCCC1CCC(c2nc(-c3cccnc3)no2)CC1 (centres undefined) | 2.04 µM
NNC(=O)c1nc2ccccc2s1 | 4.4 µM
N#CCc1nc(CSc2nc3ccccc3s2)cs1 | 9.73 µM
CCc1nc(SCc2ccc(Br)cc2)n[nH]1 | 2.5 µM
Cc1ccc(NC(=O)CN2C(=O)N/C(=C/c3ccccc3OCc3cccc(C(=O)O)c3)C2=O)cc1 | 2.65 µM
CC(C)c1ccc(/C=N/NC(=O)CCNC(=O)c2ccccc2)cc1 | 22.8 µM
Cc1ccc(CNC(=O)C2CCC(=O)N(CCc3ccc(Cl)cc3)C2)cc1 (centres undefined) | 5.36 µM
Cc1ccsc1CN(C)C(=O)C1CCC(=O)N(CCc2cccc(F)c2)C1 (centres undefined) | 5.77 µM
O=C1N=C(N2CCCCC2)S/C1=C\c1ccccc1F | 2.67 µM
CC(C)c1ccc(NC(=O)c2cccnc2)cc1 | 2.6 µM
O=C(NN=Cc1ccc2c(c1)CCC2)c1ccccc1O | 2.45 µM
Cc1ccnc(NC(=O)c2ccc3c(c2)C(=O)N(CC(C)C)C3=O)c1 | 2.87 µM
O=C(c1ccncc1)N(c1ccc(N2CCOCC2)cc1)C(c1ccccc1)c1nc2ccccc2[nH]1 (centres undefined) | 1.01 µM
Cc1cc(C)c(N=Cc2c(O)c3ccccc3oc2=O)c(C)c1 | 7.95 µM
C/C(=N\NC(=O)c1cccs1)c1ccc2ccccc2c1 | 12 µM
CCCS(=O)(=O)N1CCC(C(=O)NC2CCC(C)CC2)CC1 (centres undefined) | 3.19 µM
C=CCn1cccc(C(=O)Nc2ccc(F)cc2)c1=O | 7.32 µM
COc1ccc(-c2noc(CCCC(=O)N3CCN(c4cc(C)ccc4C)CC3)n2)cc1 | 3.53 µM
CN(C)c1ccc(CSc2ccccc2)cc1 | 2.77 µM
O=c1cc(-c2ccccc2Cl)oc2cc(O)cc(O)c12 | 12 µM
COc1c(C(=O)NNC(=O)c2ccccc2)csc1Br | 0.646 µM
O=C(Nc1ccc2c(c1)OCO2)c1cnc(Cl)c(Cl)c1 | 1.74 µM
CCCCCCCNC(=O)C1(CC2CC(c3ccccc3)=NO2)CCN(C(=O)OC(C)(C)C)CC1 (centres undefined) | 15.4 µM
COc1cccc(N(C(=O)c2cccs2)c2nc3ccccc3s2)c1 | 3.76 µM
COCOCCn1cc(CN2CCS(=O)(=O)N(Cc3ccc(-c4ccc(Cl)nc4)cc3)C(CC(C)C)C2=O)nn1 (centres undefined) | 34.2 µM
COc1ccc(C(=O)N=c2sc3ccccc3n2C)cc1OC | 2.13 µM
CC(=O)Nc1ccc2c(c1)Cc1c(F)cccc1-2 | 0.977 µM
Cn1cccc1C(=O)NC1CCCCCC1 | 3.74 µM
Cc1cc(OCc2cc(C(=O)N(C)C(C)c3ccccn3)no2)cc(C)c1Cl (centres undefined) | 14.7 µM
CCc1sc(C(=O)Nc2ccc3nc(C)sc3c2)cc1C | 4.74 µM
CSc1cccc(NC(=O)N2CCc3ccc(NC(=O)c4ccccn4)cc3C2)c1 | 4.23 µM
O=C(COC(=O)c1cccc(S(=O)(=O)N2CCOCC2)c1)Nc1nc(-c2ccccc2Cl)cs1 | 16.2 µM
O=C(N/N=C/c1cccs1)c1cccc2cc[nH]c12 | 6.06 µM
